Procedure Details: in vivo
Condition Label: rat, in vivo, 32 mg/kg
Assay Readout: Cmax (nM)
API: value field is a number in nM; no unit string.

Input line: Returns the measured Cmax for the input molecule. Input: CC(C)(O)Cc1ccc(-c2ccc(C(=O)N3CC[C@H](N)C3)cc2-c2ccc(C#N)c(F)c2)c(F)c1 [free form of Compound A]
Output line: 2560

###

Entries and their measured Cmax follow.
Procedure Details: Pharmacokinetic (PK) studies in rats
Condition Label: rats, dose of 32 mg/5 mL/kg
API: value field is a number in nM; no unit string.

[[record]]
molecule = "C/C=C/C=C/C(=O)O.CC(C)(O)Cc1ccc(-c2ccc(C(=O)N3CC[C@H](N)C3)cc2-c2ccc(C#N)c(F)c2)c(F)c1 [sorbic acid salt of Compound A]"
assay_readout = "Cmax"
recorded_number = 2030


Here's the next entry for you.
Input line: Returns the measured Cmax for the input molecule. Input: CC(C)(O)Cc1ccc(-c2ccc(C(=O)N3CC[C@H](N)C3)cc2-c2ccc(C#N)c(F)c2)c(F)c1.O=C(O)c1ccccc1 [benzoic acid salt of Compound A]
Output line: 2680

Measured values drawn from patent US12419858B2 for this set.
